system: Sarcoma 180 mouse solid tumor; experiment: Antitumor activity against Sarcoma 180 mouse solid tumor; assay type: in vivo, mouse (ddY); conditions: Sarcoma-180, iv, 168 h, read-out: T/C (tumor volume ratio treated/control)
Measured response vs control in vivo at 8 mg/kg, listed per entry for reference.
Returns: string containing the number followed by the unit.

Recorded response vs control in vivo at 8 mg/kg, per entry:
[[record]]
compound = "COC(=O)[C@H](CCC(=O)OCSC(=O)C(C)(O)C12CC/C(C)=C/C(O)C(=O)/C=C/C=C\\c3csc(n3)C(C)N(C(=O)C1)[S+]2[O-])NC(=O)[C@@]12O[C@@H](CO)[C@@H](O)[C@@H]1OC(C)(C)O2 (stereo partly drawn)"
readout_type = "response vs control in vivo at 8 mg/kg"
observed_measurement = "31%"

[[record]]
compound = "COC(=O)[C@H](CCC(=O)OCSC(=O)C(C)(O)C12CC/C(C)=C/C(OC3CCCCO3)C(=O)/C=C/C=C\\c3csc(n3)C(C)N(C(=O)C1)[S+]2[O-])NC(=O)[C@@]12O[C@H]3COC(C)(C)O[C@H]3[C@@H]1OC(C)(C)O2 (single isomer, unassigned)"
readout_type = "response vs control in vivo at 8 mg/kg"
observed_measurement = "41%"


Kindly note: Sarcoma 180 mouse solid tumor, C/C1=C\C(O)C(=O)/C=C/C=C\c2csc(n2)C(C)N2C(=O)CC(C(C)(O)C(=O)SCOC(=O)CCCNC(=O)[C@@H]3CCC(=O)N3)(CC1)[S+]2[O-] (stereo partly drawn) , response vs control in vivo at 8 mg/kg value reported: 26%
